pKd values for the compounds below.
System Under Test: SBD1^A-2 (Lactococcus lactis, UniProt Q9CES5, T159C, form not given)
Sequence (Q9CES5 27-484 T159C): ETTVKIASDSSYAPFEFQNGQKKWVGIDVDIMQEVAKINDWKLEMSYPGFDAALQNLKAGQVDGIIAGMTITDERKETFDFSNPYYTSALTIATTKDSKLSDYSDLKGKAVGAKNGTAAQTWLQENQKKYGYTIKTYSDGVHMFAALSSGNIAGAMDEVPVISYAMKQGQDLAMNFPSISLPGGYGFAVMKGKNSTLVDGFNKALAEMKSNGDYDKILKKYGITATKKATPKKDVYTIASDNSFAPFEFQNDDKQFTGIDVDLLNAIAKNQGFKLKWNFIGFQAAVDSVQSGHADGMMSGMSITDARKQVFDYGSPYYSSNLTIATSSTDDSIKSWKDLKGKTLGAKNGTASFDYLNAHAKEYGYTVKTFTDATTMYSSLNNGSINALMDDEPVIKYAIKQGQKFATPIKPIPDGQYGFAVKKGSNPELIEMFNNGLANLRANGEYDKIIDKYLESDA
Procedure Details: smFRET / ALEX spectroscopy titration, tandem SBD1^A-2
Experimental Setup: Alexa Fluor 555/647, read-out: apparent KD
pKd: −log10 of the molar value.

| Compound | pKd |
| --- | --- |
| NC(=O)C[C@H](N)C(=O)O [asparagine] | 7.12 |
| NC(=O)CC[C@H](N)C(=O)O [glutamine] | 3.52 |

Source listed as paper PMC8025302.
